# target.under.test: human PD-1 / PD-L1-Ig binding on Jurkat cell line over-expressing human PD-1 (Jurkat-PD-1) (Homo sapiens)
# Construct: expressed in transfected cells; host or cells: Jurkat
# Sequence (Q15116 25-288): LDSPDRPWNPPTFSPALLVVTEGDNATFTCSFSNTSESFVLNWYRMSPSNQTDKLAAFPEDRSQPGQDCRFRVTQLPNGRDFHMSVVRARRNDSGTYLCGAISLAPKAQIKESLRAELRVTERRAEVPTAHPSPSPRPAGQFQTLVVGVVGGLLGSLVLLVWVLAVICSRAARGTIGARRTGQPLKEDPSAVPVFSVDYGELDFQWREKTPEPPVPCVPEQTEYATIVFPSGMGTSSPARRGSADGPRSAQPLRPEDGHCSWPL
# assay.details: Jurkat-PD-1 Cell Binding High-Content Screening Assay (CBA)
# Assay type: cell-based
# experimental.parameters: Jurkat HPD1_PDL1 IC50, Jurkat-PD-1 cells, PE-labeled PD-L1-Ig 20 nM final
Where a SMILES comes first, the peptide text is derived from it. Bridges are numbered along the chain shown (N, C = ends). [ ]: non-standard residue; d: D form. Bip = N[C@@H](Cc1ccc(-c2ccccc2)cc1)C(=O)O; Dab = NCC[C@H](N)C(=O)O; Dap = NC[C@H](N)C(=O)O
experimental.readout: pIC50
On this scale, pIC50 is minus log10 of a concentration expressed in M (mol/L).

CC(C)C[C@@H]1NC(=O)[C@H](Cc2c[nH]c3ccccc23)NC(=O)[C@H](CC(=O)O)NC(=O)[C@H](Cc2ccc(O)cc2)NC(=O)[C@H](Cc2ccccc2)NC(=O)CSC[C@@H](C(=O)NCC(N)=O)NC(=O)[C@H]([C@@H](C)O)NC(=O)[C@H](C(C)C)NC(=O)[C@H](CC(C)C)NC(=O)[C@H](CC(N)=O)NC(=O)[C@@H](C)NC(=O)[C@H](CN)NC(=O)[C@H](C(C)C)NC(=O)[C@H](Cc2ccc(-c3ccccc3)cc2)NC1=O [Compound 1074] ({CH2CO}-FYDWL[Bip]V[Dap][dA]NLVTCG-NH2; thioether N-14) ... 6.90
CC[C@H](C)[C@@H]1NC(=O)[C@H](Cc2ccc(-c3ccccc3)cc2)NC(=O)[C@H](C(C)C)NC(=O)[C@H](Cc2c[nH]c3ccccc23)NC(=O)[C@H](CC(=O)O)NC(=O)[C@H](Cc2ccc(OCC(=O)O)cc2)NC(=O)[C@H](Cc2ccc(OCC(=O)O)cc2)NC(=O)CSC[C@@H](C(=O)N[C@@H](C)C(N)=O)NC(=O)[C@H]([C@@H](C)O)NC(=O)[C@H](C(C)C)NC(=O)[C@H](CC2CCCCC2)NC(=O)[C@H](Cc2c[nH]cn2)NC(=O)[C@@H](CC(C)C)NC(=O)[C@H](CCCN)NC1=O [Compound 1592] ... 7.50

Shifting focus to the compound that follows.
pIC50 recorded for this compound, CC(C)C[C@@H]1NC(=O)[C@H](Cc2c[nH]c3ccccc23)NC(=O)[C@H](CC(=O)O)NC(=O)[C@H](Cc2ccc(O)cc2)NC(=O)[C@H](Cc2ccccc2)NC(=O)CSC[C@@H](C(=O)NCC(N)=O)NC(=O)[C@H]([C@@H](C)O)NC(=O)[C@H](C(C)C)NC(=O)[C@H](CC(C)C)NC(=O)[C@H](CC(N)=O)NC(=O)[C@@H](C)NC(=O)[C@H](CCN)NC(=O)[C@H](C(C)C)NC(=O)[C@H](Cc2ccc(-c3ccccc3)cc2)NC1=O [Compound 1099] ({CH2CO}-FYDWL[Bip]V[Dab][dA]NLVTCG-NH2; thioether N-14) , is 7.07

---

# target.under.test: human PD-1 / PD-L1-Ig binding on Jurkat cell line over-expressing human PD-1 (Jurkat-PD-1) (Homo sapiens)
# Construct: expressed in transfected cells; host or cells: Jurkat
# assay.details: Jurkat-PD-1 Cell Binding High-Content Screening Assay (CBA)
# Assay type: cell-based
# experimental.parameters: Jurkat-PD-1 cells, PE-labeled PD-L1-Ig 20 nM final; read-out: Jurkat HPD1_PDL1 IC50
Where a SMILES comes first, the peptide text is derived from it. Bridges are numbered along the chain shown (N, C = ends). [ ]: non-standard residue; d: D form. Bip = N[C@@H](Cc1ccc(-c2ccccc2)cc1)C(=O)O; 4Pal = N[C@@H](Cc1ccncc1)C(=O)O; Cha = N[C@@H](CC1CCCCC1)C(=O)O; Orn = NCCC[C@H](N)C(=O)O; Dab = NCC[C@H](N)C(=O)O; Dap = NC[C@H](N)C(=O)O
experimental.readout: pIC50
On this scale, pIC50 is minus log10 of a concentration expressed in M (mol/L).

CC(C)C[C@H]1NC(=O)[C@H](CCCN)NC(=O)[C@H](CCCN)NC(=O)[C@H](Cc2ccc(-c3ccccc3)cc2)NC(=O)[C@H](C(C)C)NC(=O)[C@H](Cc2c[nH]c3ccccc23)NC(=O)[C@H](CC(=O)O)NC(=O)[C@H](Cc2ccncc2)NC(=O)[C@H](CN)NC(=O)CSC[C@@H](C(=O)N[C@@H](C)C(N)=O)NC(=O)[C@H]([C@@H](C)O)NC(=O)[C@H](C(C)C)NC(=O)[C@H](CC2CCCCC2)NC(=O)[C@H](CCN)NC1=O [Compound 1386] ({CH2CO}-[Dap][4Pal]DWV[Bip][Orn][Orn][dL][Dab][Cha]VTCA-NH2; thioether N-14) ... 7.97

Shifting focus to the molecule that follows.
pIC50 recorded for this molecule, CCC(C)[C@@H]1NC(=O)[C@H](Cc2ccc(-c3ccccc3)cc2)NC(=O)[C@H](C(C)C)NC(=O)[C@H](Cc2cccc(C)c2)NC(=O)[C@H](CC(=O)O)NC(=O)[C@H](Cc2ccc(-c3cccc(C(=O)O)c3)cc2)NC(=O)[C@H](Cc2ccccc2)NC(=O)CSC[C@@H](C(=O)N[C@@H](C)C(N)=O)NC(=O)[C@H]([C@@H](C)O)NC(=O)[C@H](C(C)C)NC(=O)[C@H](CC2CCCCC2)NC(=O)[C@H](CCN)NC(=O)[C@@H](CC(C)C)NC(=O)[C@H](CCCN)NC1=O (some centres unmarked) , is 7.13

---

# Lookup of reported IC50 keyed by entry
# target.under.test: human PD-1 / PD-L1-Ig binding on Jurkat cell line over-expressing human PD-1 (Jurkat-PD-1) (Homo sapiens)
# Construct: expressed in transfected cells; host or cells: Jurkat
# assay.details: Jurkat-PD-1 Cell Binding High-Content Screening Assay (CBA)
# Assay type: cell-based
# experimental.parameters: Jurkat-PD-1 cells, PE-labeled PD-L1-Ig 20 nM final; read-out: Jurkat HPD1_PDL1 IC50
Where a SMILES comes first, the peptide text is derived from it. Bridges are numbered along the chain shown (N, C = ends). [ ]: non-standard residue; d: D form. Bip = N[C@@H](Cc1ccc(-c2ccccc2)cc1)C(=O)O; Cit = NC(=O)NCCC[C@H](N)C(=O)O; Nle = CCCC[C@H](N)C(=O)O; Orn = NCCC[C@H](N)C(=O)O; Dab = NCC[C@H](N)C(=O)O
Answer format: numeric, nM implied, no suffix.

These solved cases illustrate the format of a correct answer.
CC(C)C[C@@H]1NC(=O)[C@H](Cc2c[nH]c3ccccc23)NC(=O)[C@H](CC(=O)O)NC(=O)[C@H](Cc2ccc(O)cc2)NC(=O)[C@H](Cc2ccccc2)NC(=O)CSC[C@@H](C(=O)N[C@@H](C)C(N)=O)NC(=O)[C@H](CO)NC(=O)[C@H](C(C)C)NC(=O)[C@H](CC(C)C)NC(=O)[C@H](CC(N)=O)NC(=O)[C@@H](C)NC(=O)[C@H](CCCN)NC(=O)[C@H](C(C)C)NC(=O)[C@H](Cc2ccc(-c3ccccc3)cc2)NC1=O [Compound 1108] ({CH2CO}-FYDWL[Bip]V[Orn][dA]NLVSCA-NH2; thioether N-14) ... 42.5
Cc1ccccc1C[C@@H]1NC(=O)[C@H](CC(=O)O)NC(=O)[C@H](Cc2ccc(OCC(=O)O)cc2)NC(=O)[C@H](CN)NC(=O)CSC[C@@H](C(=O)N[C@@H](C)C(N)=O)NC(=O)[C@H]([C@@H](C)O)NC(=O)[C@H](C(C)C)NC(=O)[C@H](CC2CCCCC2)NC(=O)[C@H](CCN)NC(=O)[C@@H](CC(C)C)NC(=O)[C@H](CCCN)NC(=O)[C@H](CCC(=O)O)NC(=O)[C@H](Cc2ccc(-c3ccccc3)cc2)NC(=O)[C@H](C(C)C)NC1=O ... 12.1
CC(C)C[C@@H]1NC(=O)[C@H](CCN)NC(=O)[C@@H](CC(C)C)NC(=O)[C@H](CCCN)NC(=O)[C@H](CCCNC(N)=O)NC(=O)[C@H](Cc2ccc(-c3ccccc3)cc2)NC(=O)[C@H](C(C)C)NC(=O)[C@H](Cc2c[nH]c3ccccc23)NC(=O)[C@H](CC(=O)O)NC(=O)[C@H](Cc2ccc(O)cc2)NC(=O)[C@H](CC(N)=O)NC(=O)CSC[C@@H](C(=O)NCC(N)=O)NC(=O)[C@H]([C@@H](C)O)NC(=O)[C@H](C(C)C)NC1=O [Compound 1115] ({CH2CO}-NYDWV[Bip][Cit][Orn][dL][Dab]LVTCG-NH2; thioether N-14) ... 79.6
CCCC[C@@H]1NC(=O)[C@H](CCN)NC(=O)[C@@H](CC(C)C)NC(=O)[C@H](CCCN)NC(=O)[C@H](C(C)C)NC(=O)[C@H](Cc2ccc(-c3ccccc3)cc2)NC(=O)[C@H](C(C)C)NC(=O)[C@H](Cc2c[nH]c3ccccc23)NC(=O)[C@H](CC(=O)O)NC(=O)[C@H](Cc2ccc(O)cc2)NC(=O)[C@H](CC(N)=O)NC(=O)CSC[C@@H](C(=O)N[C@@H](C)C(N)=O)NC(=O)[C@H]([C@@H](C)O)NC(=O)[C@H](C(C)C)NC1=O [Compound 1171] ({CH2CO}-NYDWV[Bip]V[Orn][dL][Dab][Nle]VTCA-NH2; thioether N-14) ... 26.4
CC[C@H](C)[C@@H]1NC(=O)[C@H](Cc2ccc(-c3ccccc3)cc2)NC(=O)[C@H](C(C)C)NC(=O)[C@H](Cc2cccc(OC)c2)NC(=O)[C@H](CC(=O)O)NC(=O)[C@H](Cc2ccc(C(=O)O)cc2)NC(=O)[C@H](Cc2ccncc2)NC(=O)CSC[C@@H](C(=O)N[C@@H](C)C(N)=O)NC(=O)[C@H]([C@@H](C)O)NC(=O)[C@H](C(C)C)NC(=O)[C@H](CC(C)C)NC(=O)[C@H](CCN)NC(=O)[C@@H](CC(C)C)NC(=O)[C@H](CCCN)NC1=O ... 12
CCC(C)[C@@H]1NC(=O)[C@H](Cc2ccc(-c3ccccc3)cc2)NC(=O)[C@H](C(C)C)NC(=O)[C@H](Cc2c[nH]c3ccccc23)NC(=O)[C@H](CC(=O)O)NC(=O)[C@H](Cc2ccc(OCC(=O)O)cc2)NC(=O)[C@H](Cc2cc[nH]c2)NC(=O)CSC[C@@H](C(=O)N[C@H](C)C(N)=O)NC(=O)[C@H](C(C)O)NC(=O)[C@H](C(C)(C)O)NC(=O)[C@H](CC2CCCCC2)NC(=O)[C@H](CCN)NC(=O)[C@@H](CC(C)C)NC(=O)[C@H](CCCN)NC1=O (some centres unmarked) ... 8.3

IC50 recorded for this molecule, CCC[C@@H]1NC(=O)[C@H](Cc2c[nH]c3ccccc23)NC(=O)[C@H](CC(=O)O)NC(=O)[C@H](Cc2ccc(OCC(=O)O)cc2)NC(=O)[C@H](CN)NC(=O)CSC[C@@H](C(=O)N[C@@H](C)C(N)=O)NC(=O)[C@H]([C@@H](C)O)NC(=O)[C@H](C(C)C)NC(=O)[C@H](CC2CCCCC2)NC(=O)[C@H](CCN)NC(=O)[C@@H](CC(C)C)NC(=O)[C@H](CCCN)NC(=O)[C@H](C(C)C)NC(=O)[C@H](Cc2ccc(-c3ccccc3)cc2)NC1=O , is 13.6

IC50 recorded for this molecule, CC(C)C[C@H]1NC(=O)[C@H](CCCN)NC(=O)[C@H](CCC(=O)O)NC(=O)[C@H](Cc2ccc(-c3ccccc3)cc2)NC(=O)[C@H](C(C)C)NC(=O)[C@H](Cc2c[nH]c3ccc(C#N)cc23)NC(=O)[C@H](CC(=O)O)NC(=O)[C@H](Cc2ccc(OCC(=O)O)cc2)NC(=O)[C@H](CN)NC(=O)CSC[C@@H](C(=O)N[C@@H](C)C(N)=O)NC(=O)[C@H]([C@@H](C)O)NC(=O)[C@H](C(C)C)NC(=O)[C@H](CC2CCCCC2)NC(=O)[C@H](CCN)NC1=O , is 139
